Reference for the values: patent US20260274955A1

# Target or test system: T1, anti-CD28 Fab (SEQ ID NOs: 202, 203)
# T1 construct: biotinylated and captured on neutravidin coated plates in the phage ELISA
# T1 sequence (VH, as listed by the source, chain 1 of 2): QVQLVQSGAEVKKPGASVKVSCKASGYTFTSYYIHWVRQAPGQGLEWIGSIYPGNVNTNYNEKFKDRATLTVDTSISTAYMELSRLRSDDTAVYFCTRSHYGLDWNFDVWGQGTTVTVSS
# T1 sequence (VL, as listed by the source, chain 2 of 2): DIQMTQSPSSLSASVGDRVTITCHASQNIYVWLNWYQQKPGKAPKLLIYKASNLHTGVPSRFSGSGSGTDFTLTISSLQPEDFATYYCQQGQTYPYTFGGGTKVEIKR
# Test: phage ELISA on captured Fab;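 also: ELISA with clonal phage supernatants added to wells preincubated with CD28 antigen or with blocking buffer only, bound phage detected by HRP-conjugated anti-M13 antibody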
Result type: Anti-CD28 Fab (SEQ ID NOs: 202, 203) signal

> print(dat)
                                     binder  reported.measurement
1  YCDGHSPQYIQKCL (on phage, pIII fusion) [Phage-566]                   1.5
2  YCDGHAPQWMAKCL (on phage, pIII fusion) [Phage-457]                  1.67
3  YCDGHLDVYRAKCL (on phage, pIII fusion) [Phage-491]                  1.63
4  YCDGHAQEFIWKCL (on phage, pIII fusion) [Phage-518]                   1.6
